Parameter binding signal fold over 6E7 parental: see the listing below.
Target: T1, human TREM2 (human, UniProt Q9NZC2 19-174, limits assumed)
T1 sequence: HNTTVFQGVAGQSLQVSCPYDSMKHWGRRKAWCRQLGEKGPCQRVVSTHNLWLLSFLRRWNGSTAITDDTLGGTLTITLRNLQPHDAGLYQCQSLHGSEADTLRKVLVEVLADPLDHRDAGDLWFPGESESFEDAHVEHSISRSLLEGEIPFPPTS
Test: yeast-displayed Fab FACS, 2nd screen 10 nM
Kindly provide the numeric value in fold only, without the unit symbol.

Consider the following illustrative entries.
V61 (Fab, V domains shown) VH: EVQLVQSGAEVKKPGESLKISCKGSGYSFSSYWIAWVRQMPGKGLEWMGIIYPGDSDTRYNPSFQGQVTISADKSISTAYLQWSSLKASDTAMYFCARGRTFYYDSSDYFDYWGQGTLVTVSS VL: DIQMTQSPSSVSASVGDRVTITCRASQGISSWLAWYQQKPGKAPKLLIYAASSLVNGVPSRFSGSGSGTDFTLTISSLQPEDFATYFCQQADSLPRTFGQGTKLEIK    5.22
V26 (Fab, V domains shown) VH: EVQLVQSGAEVKKPGESLKISCKGSGYSFTSYWIGWVRQMPGKGLEWMGTIYPGDSDTRYSPSFQGQVTISADKSISTAYLQWSSLKASDTAMYFCARQRTMYYDSSDYFDAWGQGTLVTVSS VL: DIQMTQSPSSVSASVGDRVTITCRASQGISSWLAWYQQKPGKAPKLLIYAASSLQRGVPSRFSGSGSGTDFTLTISSLQPEDFATYFCQQADSYPRTFGQGTKLEIK    3.47
V40 (Fab, V domains shown) VH: EVQLVQSGAEVKKPGESLKISCKGSGYSFGSYWIAWVRQMPGKGLEWMGIIYPGDSDVRYSPSFQGQVTISADKSISTAYLQWSSLKASDTAMYFCARQRTFYYDSSDYSDYWGQGTLVTVSS VL: DIQMTQSPSSVSASVGDRVTITCRASQGISSWLAWYQQKPGKAPKLLIYAASSLQLGVPSRFSGSGSGTDFTLTISSLQPEDFATYFCQQADRFPRTFGQGTKLEIK    4.16

q: // lookup binding signal fold over 6E7 parental for V75 (Fab, V domains shown) VH: EVQLVQSGAEVKKPGESLKISCKGSGYSFTSYWIAWVRQMPGKGLEWMGIIYPGDSDTRYSPSFQGQVTISADKSISTAYLQWSSLKASDTAMYFCARGRTFYYDSSDYFDYWGQGTLVTVSS VL: DIQMTQSPSSVSASVGDRVTITCRASQGISSWLAWYQQKPGKAPKLLIYAASSLQAGVPSRFSGSGSGTDFTLTISSLQPEDFATYFCQQADSYPRTFGQGTKLEIK
a: 4.52

q: // returns reported binding signal fold over 6E7 parental for input V4 (Fab, V domains shown) VH: EVQLVQSGAEVKKPGESLKISCKGSGYSFGSYWIAWVRQMPGKGLEWMGIIYPGDSDTRVSPSFQGQVTISADKSISTAYLQWSSLKASDTAMYFCARSRTFYYDSSDYFDYWGQGTLVTVSS VL: DIQMTQSPSSVSASVGDRVTITCRASQGISSWLAWYQQKPGKAPKLLIYAASRLQNGVPSRFSGSGSGTDFTLTISSLQPEDFATYFCQQADSYPRTFGQGTKLEIK
a: 5.51
